SYSTEM NAME: full-length beta-Catenin (Uniprot ID P35222) (Homo sapiens (Human)) (UniProt P35222)
TEST SUMMARY: fluorescence polarization competition; peptide titrated against 10 nM full-length beta-catenin + 10 nM 5FAM-TCF4(10-53)
Starred links: 1 amine or outer side, 2 acyl side, 3 side chain; linkers in the order of their positions; H or OH if unused. Positions of bridges follow the written chain, without caps; N, C: chain ends. Non-standard residues stand in square brackets, D forms with d. Primed or numbered codes have the meaning given here. *: point of attachment. PyrS2″ = (S)-3-amino-1-((pent-4-en-1-yloxy)carbonyl)pyrrolidine-3-carboxylic acid (stapling residue), C=CCCCOC(=O)N1CC[C@@](N[*:1])(C(=O)[*:2])C1; B5(4) = 2,2-bis(4-pentenyl)glycine = 2-amino-2-(pent-4-en-1-yl)hept-6-enoic acid (stitching residue), C=CCCCC(CCCC=C)(N[*:1])C(=O)[*:2]; B5(5) = 2,2-bis(4-pentenyl)glycine, 2-amino-2-(pent-4-en-1-yl)hept-6-enoic acid (stitching residue), C=CCCCC(CCCC=C)(N[*:1])C(=O)[*:2]; PyrS2 = (S)-3-amino-1-((pent-4-en-1-yloxy)carbonyl)pyrrolidine-3-carboxylic acid, C=CCCCOC(=O)N1CC[C@@](N[*:1])(C(=O)[*:2])C1; MorphAsn = (S)-2-amino-4-morpholino-4-oxobutanoic acid, O=C(C[C@H](N[*:1])C(=O)[*:2])N1CCOCC1; B5(3) = 2,2-bis(4-pentenyl)glycine (stitching residue), C=CCCCC(CCCC=C)(N[*:1])C(=O)[*:2]; Phe(4-CONH2) = NC(=O)c1ccc(C[C@H](N)C(=O)O)cc1; Phe(2-Cl) = N[C@@H](Cc1ccccc1Cl)C(=O)O; Bta = N[C@@H](Cc1csc2ccccc12)C(=O)O; Lys(iPr) = CC(C)NCCCC[C@H](N)C(=O)O; αAllylPro = C=CC[C@@]1(C(=O)O)CCCN1; tBuAla = CC(C)(C)C[C@H](N)C(=O)O; Cha = N[C@@H](CC1CCCCC1)C(=O)O; hSer = N[C@@H](CCO)C(=O)O; Alaol = C[C@@H](CO)N*
Each item that follows carries a reported IC50.
// note: answer is a bare numeric in nM

Example entries and their recorded answers appear below.
Ac-[αAllylPro]D[Cha][B5(4)]DEAAFL[PyrS2″][Phe(2-Cl)][Bta]Q-NH2 (staple 1-4, 4-11; also: later-eluting staple isomer composition) [I-1078]; 352
Ac-[αAllylPro]D[tBuAla][B5(3)]DDAAFN[PyrS2″][Phe(2-Cl)][Bta]-Alaol (staple 1-4, 4-11) [I-1081]; 5
Ac-[αAllylPro]N[Cha][B5(4)]DQK(Ac)AFL[PyrS2]F[Bta][MorphAsn]-NH2 (staple 1-4, 4-11) [I-2522]; 219

// below: IC50 requested for another binder
For this binder ( Ac-[αAllylPro]N[Cha][B5(5)]DQ[Lys(iPr)]AFN[PyrS2″][Phe(4-CONH2)][Bta][hSer]-NH2 (staple 1-4, 4-11) [I-2169] ), measured IC50 is 10000
